Taken from patent US20230172928A1.

Quick reference for pIC50 among some molecules
Test system: HCC2279 cells
Assay: Cell proliferation / combination dose matrix assay (CellTiter-Glo)
Format: cell-based
Details: Homo sapiens; HCC2279, EGFR ex19del
pIC50: −log10 of the molar value.

Enquiry: State its pIC50: "Cc1cc(C(=O)Nc2nc3cccc(Cl)c3n2[C@@H]2CCCCN(C(=O)/C=C/CN(C)C)C2)ccn1"
Return: < 5.52

Enquiry: State its pIC50: "C[C@@H]1OCC2(CCN(c3cnc(Sc4ccnc(N)c4Cl)c(N)n3)CC2)[C@@H]1N"
Return: < 5.00

* * *

Tested on: PC9 cells
Test: Cell proliferation / combination dose matrix assay (CellTiter-Glo)
Type: cell-based, human
Details: Homo sapiens, PC-9, PC9, EGFR ex19del
value.type: pIC50
Scale: negative log10 of molar concentration, which is what pIC50 denotes.

Enquiry: GET pIC50 where system = PC9 cells and item = "Cc1cc(C(=O)Nc2nc3cccc(Cl)c3n2[C@@H]2CCCCN(C(=O)/C=C/CN(C)C)C2)ccn1"
Return: 8.00

* * *

Tested on: HCC4006 cells
Experiment: Cell proliferation / combination dose matrix assay (CellTiter-Glo)
Type: cell-based
Conditions: Homo sapiens; HCC4006, EGFR ex19del
value.type: IC50 (nM)
Express it in nM; write the number only.

Enquiry: GET IC50 where system = HCC4006 cells and item = "Cc1cc(C(=O)Nc2nc3cccc(Cl)c3n2[C@@H]2CCCCN(C(=O)/C=C/CN(C)C)C2)ccn1"
Return: 60
